Organism: Rattus norvegicus
Assay: DrugMatrix - Regimen: Daily Repeat
Type: toxicity, organism-based, Sprague-Dawley
Parameters: regimen Daily Repeat, gender Male, age 6-8 weeks
Conditions: in vivo, po, 0 mg/kg, 120 h, tissue Plasma, route oral GAVAGE, dose level Control, time 5 day, vehicle .5 % CMC
So basically, if ASPARTATE AMINOTRANSFERASE comes in under 70 u/L it's Criterion met, and if it's 70 u/L or more it's Criterion not met.

[
  {
    "Compound": "CC(C)(C)NC(=O)[C@@H]1C[C@@H]2CCCC[C@@H]2CN1C[C@@H](O)[C@H](Cc1ccccc1)NC(=O)[C@H](CC(N)=O)NC(=O)c1ccc2ccccc2n1",
    "Label value": "Criterion not met"
  },
  {
    "Compound": "CC1CC(OC(=O)C(O)c2ccccc2)CC(C)(C)C1 (stereo not given) [CYCLANDELATE]",
    "Label value": "Criterion met"
  },
  {
    "Compound": "ClC(Br)Br",
    "Label value": "Criterion not met"
  },
  {
    "Compound": "Nc1ccn([C@H]2CC[C@@H](CO)O2)c(=O)n1",
    "Label value": "Criterion not met"
  },
  {
    "Compound": "COc1nc(C)nc(Cl)c1N=C1NCCN1",
    "Label value": "Criterion not met"
  },
  {
    "Compound": "CN1CCN(CCCN2c3ccccc3Sc3ccc(Cl)cc32)CC1",
    "Label value": "Criterion not met"
  },
  {
    "Compound": "O=C(CCCN1CC=C(n2c(=O)[nH]c3ccccc32)CC1)c1ccc(F)cc1",
    "Label value": "Criterion met"
  },
  {
    "Compound": "CCCCc1oc2ccccc2c1C(=O)c1cc(I)c(OCCN(CC)CC)c(I)c1",
    "Label value": "Criterion met"
  },
  {
    "Compound": "Cc1nc2n(c(=O)c1CCN1CCC(c3noc4cc(F)ccc34)CC1)CCCC2",
    "Label value": "Criterion met"
  }
]
